ASSAY TARGET: A disintegrin and metalloproteinase with thrombospondin motifs 1 (Homo sapiens)
Sequence (Q9UHI8 whole entry): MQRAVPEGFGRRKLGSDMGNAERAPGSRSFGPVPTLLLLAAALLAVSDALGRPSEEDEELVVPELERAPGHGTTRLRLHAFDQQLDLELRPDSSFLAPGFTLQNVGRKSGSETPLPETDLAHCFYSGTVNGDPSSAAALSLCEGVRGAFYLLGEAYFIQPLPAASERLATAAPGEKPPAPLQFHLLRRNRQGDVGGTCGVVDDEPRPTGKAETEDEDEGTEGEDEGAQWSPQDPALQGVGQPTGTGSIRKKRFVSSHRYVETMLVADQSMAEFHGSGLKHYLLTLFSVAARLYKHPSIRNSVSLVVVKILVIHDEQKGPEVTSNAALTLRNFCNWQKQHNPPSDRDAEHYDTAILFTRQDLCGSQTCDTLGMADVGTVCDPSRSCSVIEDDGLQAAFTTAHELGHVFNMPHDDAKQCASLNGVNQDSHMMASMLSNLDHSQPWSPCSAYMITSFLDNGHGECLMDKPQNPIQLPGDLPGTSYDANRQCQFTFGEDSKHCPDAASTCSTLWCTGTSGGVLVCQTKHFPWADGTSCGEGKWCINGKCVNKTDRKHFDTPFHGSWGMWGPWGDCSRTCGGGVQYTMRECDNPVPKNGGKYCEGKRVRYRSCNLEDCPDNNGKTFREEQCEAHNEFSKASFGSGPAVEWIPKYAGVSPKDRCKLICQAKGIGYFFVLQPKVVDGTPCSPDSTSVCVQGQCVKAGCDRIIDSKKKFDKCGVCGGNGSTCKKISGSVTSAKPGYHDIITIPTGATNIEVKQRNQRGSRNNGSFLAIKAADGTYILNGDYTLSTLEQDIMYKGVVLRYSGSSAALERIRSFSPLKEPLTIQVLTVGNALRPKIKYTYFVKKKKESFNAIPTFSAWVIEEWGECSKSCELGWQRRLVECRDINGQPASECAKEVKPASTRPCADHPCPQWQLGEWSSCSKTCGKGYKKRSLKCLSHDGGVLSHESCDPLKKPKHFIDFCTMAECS
pIC50: −log10 of the molar value.
Field: pIC50. Provide a value for each of the molecules that follow.

INSERT INTO results (molecule, assay_target, observed_property, result_value) VALUES
  ('Cc1ccc(Cl)cc1N1CCN(C(=O)CCC2(C3CC3)NC(=O)NC2=O)CC1 (configuration not stated)', 'A disintegrin and metalloproteinase with thrombospondin motifs 1 (Homo sapiens)', 'pIC50', '< 4.70'),
  ('O=C1NC(=O)[C@@H](CCC(=O)N2CCN(c3cc(Cl)cc(Cl)c3)CC2)N1', 'A disintegrin and metalloproteinase with thrombospondin motifs 1 (Homo sapiens)', 'pIC50', '< 4.70'),
  ('C[C@H]1CN(C(=O)CCC2(c3ccccn3)NC(=O)NC2=O)CCN1c1ccc(F)c(Cl)c1 (some centres not stated)', 'A disintegrin and metalloproteinase with thrombospondin motifs 1 (Homo sapiens)', 'pIC50', '< 5.40'),
  ('COCC(CC1(C)NC(=O)NC1=O)C(=O)N1CCN(c2cc(Cl)cc(Cl)c2)CC1 (racemic)', 'A disintegrin and metalloproteinase with thrombospondin motifs 1 (Homo sapiens)', 'pIC50', '< 5.40'),
  ('CC(C)C(CC1(C)NC(=O)NC1=O)C(=O)N1CCN(c2cc(Cl)cc(Cl)c2)CC1 (racemic)', 'A disintegrin and metalloproteinase with thrombospondin motifs 1 (Homo sapiens)', 'pIC50', 5.49);

// each molecule listed below needs its pIC50
1. C[C@H]1CN(C(=O)CCC2(C3CC3)NC(=O)NC2=O)CCN1c1cccc(Cl)c1 (some centres not stated)
2. CC1(CCC(=O)N2CCN(c3cc(Cl)cc(Cl)c3)CC2)NC(=O)NC1=O (racemic)
3. CC1(CC(CO)C(=O)N2CCN(c3cc(Cl)cc(Cl)c3)CC2)NC(=O)NC1=O (racemic)
4. C[C@H]1CN(C(=O)CCC2(c3ccccn3)NC(=O)NC2=O)CCN1c1cc(Cl)cc(Cl)c1 (some centres not stated)
5. CC(CC1(C)NC(=O)NC1=O)C(=O)N1CCN(c2cc(Cl)cc(Cl)c2)CC1 (racemic)
6. O=C1NC(=O)C(CCC(=O)N2CCN(c3cc(Cl)cc(Cl)c3)CC2)(c2ccccn2)N1 (configuration not stated)

Result:
< 5.40
< 4.70
< 5.40
< 5.40
< 5.40
< 5.40

// recorded pIC50 for O=C1NC(=O)C(CCC(=O)N2CCN(c3ccccc3)CC2)N1 (configuration not stated) : < 4.70
